# test: Pharmacokinetics study in the rat, single oral dose
# Format: in vivo
# cond: Sprague-Dawley (Slc:SD), single oral 10 mg/kg, non-fasting, serum, n=3
property-measured: Cmax (nM)
The response must be a number in nM with no trailing unit.

# input Data request, read-out Cmax, for O=C(NCCCOc1ccc2[nH]c(=O)ccc2c1)N(C1CC1)[C@@H]1CCCC[C@H]1O
# output 830

###

# test: Pharmacokinetics study in the rat, single oral dose
# Assay type: in vivo
# cond: Sprague-Dawley, single oral 30 mg/kg, non-fasting, serum, n=3
property-measured: AUC(0-inf) (µM·h)
The response must be a number in µM·h with no trailing unit.

# input Data request, read-out AUC(0-inf), for O=C(NCCCOc1ccc2[nH]c(=O)ccc2c1)N(C1CC1)[C@@H]1CCCC[C@H]1O [Compound 1]
# output 14.8

###

# test: Pharmacokinetics study in the rat, single oral dose
# Assay type: in vivo
# cond: Sprague-Dawley, single oral 10 mg/kg, non-fasting, serum, n=3
property-measured: half-life (h)
The response must be a number in h with no trailing unit.

# input Data request, read-out half-life, for O=C(NCCCOc1ccc2[nH]c(=O)ccc2c1)N(C1CC1)[C@@H]1CCCC[C@H]1O [Compound 1]
# output 2
